system: STEME; assay: Pre-emergence biological efficacy (Table 3); format: in vivo; details: 312 h, after 13 days, read-out: evaluation (100=total damage to plant; 0=no damage to plant)
Below, each entry is listed alongside its reported pest or weed control at 1000 g/ha.
Lab book: enter the figure in %, no units written.

1. CCOC(=O)C(F)(F)c1c(Cl)cccc1[N+](=O)[O-] : 10
2. CCc1cccc(C(F)(F)C(=O)O)c1Cl : 80
3. O=C(O)C(F)(F)c1cccc(Cl)c1[N+](=O)[O-] : 100

Test system STEME; read-out pest or weed control at 1000 g/ha; what value for O=C(O)C(F)(F)c1c(Cl)ccc2cccnc12 ? 10

Value wanted: pest or weed control at 1000 g/ha (STEME) of entry O=C(O)C(F)(F)c1cccc2cccnc12 70

Query pest or weed control at 1000 g/ha on STEME for COc1c(Cl)cccc1C(F)(F)C(=O)O 100

---

Below: a set of entries, each annotated with reported pest or weed control at 1000 g/ha.
test system: weeds and/or crops; experiment: Post-emergence biological efficacy (Table 4); assay type: in vivo; details: 312 h, ZEAMX, 1000 g/ha, evaluated after 13 days, read-out: damage to plant ZEAMX (100=total damage; 0=no damage)
Hi! Could you send only the number? It should be in %, unit omitted.

Look up pest or weed control at 1000 g/ha: O=C(O)C(F)(F)c1cccc([N+](=O)[O-])c1Cl [Compound 7-237] 0

Which value of pest or weed control at 1000 g/ha has been reported for Cc1noc2cccc(C(F)(F)C(=O)O)c12 [Compound 1-391] in the records? 10

---

tested on: IPOHE; test: Pre-emergence biological efficacy (Table 3); assay type: in vivo; details: Ipomoea hederacea, 312 h, 1000 g/ha, after 13 days, read-out: evaluation (100=total damage to plant; 0=no damage to plant)
Lab note: anything with pest or weed control at 1000 g/ha at or over 40% counts as 1.0; the rest go in 0.0.

Here are 5 molecules together with their reported answers.
1) Nc1c(Cl)cccc1C(F)(F)C(=O)O [Compound 1-252] : 1.0
2) O=C(O)C(F)(F)c1cccc(Cl)c1[N+](=O)[O-] [Compound 7-250] : 1.0
3) COc1ccc(Cl)c(C(F)(F)C(=O)O)c1 [Compound 1-62] : 0.0
4) O=C(O)C(F)(F)c1cccc2cccnc12 [Compound 1-403] : 1.0
5) O=C(O)C(F)(F)c1cc(O)ccc1Cl [Compound 1-61] : 0.0

Evaluate O=C(O)C(F)(F)c1c(F)ccc2cccnc12 [Compound 1-406] : pest or weed control at 1000 g/ha at minimum 40%? 1.0

Please tell me: is the molecule O=C(O)C(F)(F)c1c(Cl)ccc2cc(Cl)cnc12 [Compound 1-418] at or over 40% in terms of pest or weed control at 1000 g/ha? 1.0

Determine whether measured pest or weed control at 1000 g/ha meets or exceeds 40% for CCc1cccc(C(F)(F)C(=O)O)c1Cl [Compound 1-196] 1.0

Given the entry CSc1c(Cl)cccc1C(F)(F)C(=O)O [Compound 1-356] , answer whether its pest or weed control at 1000 g/ha meets or surpasses 40%. 1.0

Hi, just wondering whether N#Cc1c(Cl)cccc1C(F)(F)C(=O)O [Compound 1-262] shows pest or weed control at 1000 g/ha of 40% or higher. 1.0

Does the molecule COC(=O)c1c(Cl)cccc1C(F)(F)C(=O)O [Compound 1-444] have recorded pest or weed control at 1000 g/ha that is 40% or more? 1.0
